value.kind: melting point

Some solved cases for reference:
| molecule | melting point |
| --- | --- |
| Fc1ccc(-c2nc(-c3ccccc3)cn2-c2ccncc2)cc1 | 90 to 92 °C |
| CN1Cc2c(C(N)=O)ncn2-c2ccc(F)c(Cl)c2C1=O | 292 to 294 °C |
| C1COC2(OC1)OCCCO2 | 137 to 140 °C |
| Cc1c(-c2ccccc2)nc2ccc(NC(=O)c3cc4cc(F)ccc4n3Cc3cccc(F)c3)cn12 | 258 to 259 °C |
| C=CCOc1cc(-c2cc(=O)c3c(OCC=C)c(CC=C)c(OCC=C)cc3o2)ccc1OC | 107 °C |
| COc1ccc(Cl)cc1NC(=NN)c1cc(C(F)(F)F)cc(C(F)(F)F)c1 | 117 to 120 °C |

(Q) Quick check: melting point of OC1(c2ccc3c(c2)OCO3)CCN(CCc2ccccc2)CC1 ?
(A) 123 to 125 °C

(Q) Continue with COc1ccc(C(=O)Cc2cc(OC)ccc2OC)cc1
(A) 108 to 111 °C

(Q) Continue with CC(C(=O)N(C)O)c1ccc(-c2ccccc2)c(F)c1 (configuration not stated)
(A) 125 to 126 °C

(Q) Continue with COc1cc2ncc(C#N)c(Cl)c2cc1OC
(A) 220 to 223 °C

(Q) Continue with CC(C)CC(=O)N1CCC(c2nc3cc(-c4ccc(C(N)=O)c(F)c4)ccc3o2)CC1
(A) 186 to 190 °C

(Q) Continue with CC(C)(C)COC1CCC(=O)N1 (configuration not stated)
(A) 45 °C

(Q) Continue with N#Cc1ccc(CNC(=O)Cc2ccc(O)cc2)cc1
(A) 176 to 178 °C

(Q) Continue with O[C@@H]1CCCC[C@H]1Nc1ccccc1 (relative stereo)
(A) 57 to 58 °C

(Q) Continue with COC(=O)C(CCSC)c1nc(C)nc2c1nnn2-c1ccc(C(C)C)cc1Br (configuration not stated)
(A) 135 to 137 °C

(Q) Continue with COc1cc(N=C=S)nc(OC)c1
(A) 85 to 86 °C

(Q) Continue with CC(C)Nc1cccnc1N1CCN(C(=O)c2ccc(C(=O)NCCO)cc2)CC1
(A) 182 to 184 °C
